- TARGET_OF_ASSAY: Sigma non-opioid intracellular receptor 1 (Rattus norvegicus)
- Sequence (Q9R0C9 whole entry): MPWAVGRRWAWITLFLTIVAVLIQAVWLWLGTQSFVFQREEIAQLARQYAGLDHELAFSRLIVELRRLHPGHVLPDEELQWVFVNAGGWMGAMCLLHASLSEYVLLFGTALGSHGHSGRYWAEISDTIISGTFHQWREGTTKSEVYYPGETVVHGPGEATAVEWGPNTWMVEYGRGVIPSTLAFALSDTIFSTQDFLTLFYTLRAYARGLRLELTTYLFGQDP
- PROCEDURE_SUMMARY: Displacement of (+)-[3H]-3-PPP from rat cortical sigma site
pIC50: −log10 of the molar value.
Would you mind labelling by pIC50? At or over 7 is condition met, under is condition not met.

Some solved entries appear below for comparison.
>  <MOLECULE>
OC(CCCN1CCN(c2ncccn2)CC1)(c1ccc(F)cc1)c1ccc(F)cc1

>  <TARGET_OF_ASSAY>
Sigma non-opioid intracellular receptor 1 (Rattus norvegicus)

>  <ASSIGNED_CATEGORY>
condition not met

$$$$
>  <MOLECULE>
CCC(O)(CCCN1CCN(c2ncc(F)cn2)CC1)c1ccc(F)cc1 (stereo unspecified)

>  <TARGET_OF_ASSAY>
Sigma non-opioid intracellular receptor 1 (Rattus norvegicus)

>  <ASSIGNED_CATEGORY>
condition not met

$$$$
>  <MOLECULE>
N#CC(CCCN1CCN(c2ncc(F)cn2)CC1)c1ccc(F)cc1 (stereo unspecified)

>  <TARGET_OF_ASSAY>
Sigma non-opioid intracellular receptor 1 (Rattus norvegicus)

>  <ASSIGNED_CATEGORY>
condition not met

$$$$
>  <MOLECULE>
OC(CCCN1CCN(c2ncc(Cl)cn2)CC1)c1ccc(F)cc1 (stereo unspecified)

>  <TARGET_OF_ASSAY>
Sigma non-opioid intracellular receptor 1 (Rattus norvegicus)

>  <ASSIGNED_CATEGORY>
condition met

$$$$

Threshold query (pIC50 >= 7) on "Fc1ccc(/C=C(\CCN2CCN(c3ncccn3)CC2)c2ccc(F)cc2)cc1"
condition not met

Threshold query (pIC50 >= 7) on COc1nc(N2CCN(CCCC(O)c3ccc(F)cc3)CC2)ncc1F (stereo unspecified)
condition met
